# Tested system: His6-AspH315–758 (human aspartate/asparagine-β-hydroxylase, AspH) (Homo sapiens, UniProt Q12797)
# Construct: N-Terminally His6-tagged human AspH315–758 (His6-AspH315–758) was produced in E. coli BL21 (DE3) cells; made in house; host or cells: E. coli BL21 (DE3), pET-28a(+) vector
# Sequence (Q12797 315-758): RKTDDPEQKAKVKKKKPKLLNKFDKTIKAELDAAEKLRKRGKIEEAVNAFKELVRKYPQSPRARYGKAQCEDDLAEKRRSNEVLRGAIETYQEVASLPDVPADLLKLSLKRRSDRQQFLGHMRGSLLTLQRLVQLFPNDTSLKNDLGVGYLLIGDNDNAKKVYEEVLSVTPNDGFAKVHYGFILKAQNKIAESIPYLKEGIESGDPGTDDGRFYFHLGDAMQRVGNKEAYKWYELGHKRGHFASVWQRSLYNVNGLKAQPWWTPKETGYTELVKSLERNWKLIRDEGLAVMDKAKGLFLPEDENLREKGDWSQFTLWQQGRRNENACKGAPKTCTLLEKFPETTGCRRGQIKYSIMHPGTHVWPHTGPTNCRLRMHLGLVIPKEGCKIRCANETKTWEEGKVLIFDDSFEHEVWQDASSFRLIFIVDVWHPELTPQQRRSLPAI
# Protocol notes: SPE-MS AspH inhibition assay (LOPAC screen at fixed 20 μM and IC50 dose-response), hydroxylation of cyclic peptide hFX-CP101–119
# Type: biochemical
# Condition details: LOPAC Plate 4, compound at 20 uM, substrate conversion
Structures can show the parent of a compound that is named as a salt.
Metric: % conversion (%)
One number for each entry, in %.

>  <Compound>
CC(C)(C)NC[C@H](O)COc1nsnc1N1CCOCC1.O=C(O)/C=C\C(=O)O [S(-)-Timolol maleate]

>  <% conversion (%)>
29.54

$$$$

Give % conversion for all compounds that follow.
1. CCN1CCC[C@H]1CNC(=O)c1cc(S(N)(=O)=O)ccc1OC [(-)-Sulpiride]
2. COc1ccc(-c2cc3nccn3c(Nc3ncccc3C(N)=O)n2)cc1OC.Cl.O [BAY 61-3606 hydrochloride hydrate]
3. COc1cc2ncnc(Nc3cccc(Cl)c3)c2cc1OC [Tyrphostin AG 1478]
4. O=C(CCSCc1ccco1)NNC(=O)N1Cc2ccccc2Oc2ccc(Cl)cc21 [SC-51322]
5. c1ccc(C2CN3CCSC3=N2)cc1 (stereo not shown) [Tetramisole hydrochloride]
6. Cc1ccc(O)c(N=Nc2ccccc2)n1 [SIB 1757]
7. CCOc1nc2cccc(C(=O)OC(C)OC(=O)OC3CCCCC3)c2n1Cc1ccc(-c2ccccc2-c2nnn[nH]2)cc1 (stereo not shown) [Candesartan cilexetil, reference compound]
8. CCN1CCC[C@H]1CNC(=O)c1c(O)c(Cl)cc(Cl)c1OC.O=C(O)C(O)C(O)C(=O)O (racemic) [S(+)-Raclopride L-tartrate]

Result:
1: 32.10; 2: 33.04; 3: 38.87; 4: 23.51; 5: 38.57; 6: 30.83; 7: 2.30; 8: 11.56

Give % conversion for all compounds that follow.
1. CC(C)Oc1cccnc1N(C)C1CCN(Cc2ccccc2)CC1.O=C(O)/C=C\C(=O)O [U-101958 maleate]
2. O=C(O)CCCCC1CCSS1 (racemic) [(±)-alpha-Lipoic Acid]
3. CC(C)=CCC/C(C)=C/COc1ccc2ccc(=O)oc2c1 [Auraptene]
4. CCOC(=O)C1=C(O)C(=O)N(Cc2ccccc2)C1 [EBPC]
5. C=C[C@H]1C[N@@]2CC[C@H]1C[C@@H]2[C@@H](O)c1ccnc2ccc(OC)cc12 [Quinidine sulfate]
6. C=C1C[C@@]23CC[C@H]4[C@@](C)(CCC[C@@]4(C)C(=O)O)[C@@H]2CC[C@]1(O)C3 [Steviol]
7. CC(C)(C)c1ccc(/C=C/C(=O)Nc2ccc3c(c2)OCCO3)cc1 [AMG 9810]
8. CCc1cncnc1N1CCN(Cc2nc3ccc(C(F)(F)F)cc3[nH]2)CC1 [PF-4708671]

Result:
35.76
34.64
37.42
36.52
33.25
37.50
34.65
41.30

Give % conversion for all compounds that follow.
1. N#C/C(=C\c1ccc(-c2cc(Cl)ccc2Cl)o1)C(=O)Nc1cccc2ncccc12 [AGK2]
2. O=c1[nH]c(=O)n(C2CCCO2)cc1F (stereo not shown) [Tegafur]
3. CCCOc1ccccc1-c1nc2nn[nH]c2c(=O)[nH]1 [Zaprinast]
4. O=C1CCC(N2C(=O)c3ccccc3C2=O)C(=O)N1 (racemic) [(±)-Thalidomide]
5. CCCCC1C(=O)N(c2ccccc2)N(c2ccccc2)C1=O [Phenylbutazone]

Result:
36.60
31.54
35.45
38.18
37.63
